protocol: High-throughput drug toxicity screening in the BPDCN cell line Cal-1 (AID 1224825);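 also: cells exposed to compounds for 48 h; 100% = DMSO and 0% = bortezomib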
measurementContext: Cal-1 BPDCN cell viability, qHTS; at 45.8 µM (top of the series) unless noted
assayMetric: viability (% of control) (%)
Note: unit % is implicit; provide only the numeric part.

Data request: I have this compound here, CNc1nc(Nc2ccc(C(=O)N3CCOCC3)cc2OC)ncc1Cl , and I need its recorded viability (% of control).
Data returned: 93.7

Data request: Please do the same for CC[C@H](NC(=O)[C@H](C)NC)C(=O)N1C[C@@H](O)C[C@H]1Cc1c(-c2[nH]c3cc(F)ccc3c2C[C@H]2C[C@H](O)CN2C(=O)[C@H](CC)NC(=O)[C@H](C)NC)[nH]c2cc(F)ccc12 as well.
Data returned: 7.23

Data request: Please do the same for NS(=O)(=O)c1ccc(Nc2nc(OCC3CCCCC3)c3[nH]cnc3n2)cc1 as well.
Data returned: 9.86

Data request: Please do the same for CCCCC(F)(F)[C@@]1(O)CC[C@H]2[C@H](CC(=O)[C@@H]2CCCCCCC(=O)O)O1 as well.
Data returned: 106

Data request: Please do the same for CC(C)C[C@H](NC(=O)c1cc2ccccc2s1)C(=O)N1CCN(C(=O)[C@H](CO)NS(=O)(=O)c2ccc(Cl)cc2Cl)CC1 as well.
Data returned: 67

Data request: Please do the same for O=C(c1ccc(C=Cc2n[nH]c3ccccc23)cc1)N1CCNCC1 as well.
Data returned: 18

Data request: Please do the same for CCCCC[C@H](O)C=C[C@H]1[C@H](O)CC(=O)[C@H]1CCCCCCC(=O)O as well.
Data returned: 93.2

Data request: Please do the same for C[C@H]1O[C@@H](n2cc(F)c(=O)[nH]c2=O)[C@H](O)[C@H]1O as well.
Data returned: 28.4

---

protocol: qHTS profiling for inhibitors of Plasmodium falciparum (3D7) proliferation (AID 743322);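 also: infected erythrocytes exposed to compound for 72 h before lysis; 100% = DMSO vehicle wells and 0% = 0.29 µM artemisinin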
measurementContext: P. falciparum 3D7 proliferation; at 28.7 µM (top of the series) unless noted
For each of the compounds below, state its remaining parasite growth % (stronger effect = lower value).
Note: unit % is implicit; provide only the numeric part.

Data request: I have this compound here, CN(C)CCN(C)C(=O)c1ccc(NC(=O)Nc2ccc(-c3nc(N4CCOCC4)c4ccn(CC(F)(F)F)c4n3)cc2)cc1 , and I need its recorded remaining parasite growth % (stronger effect = lower value).
Data returned: -0.909

Data request: Please do the same for CCN(CC)CCCCNc1nc2cc(Cl)c(Cl)cc2nc1-c1ccc(-c2cccs2)s1 as well.
Data returned: 0.96

Data request: Please do the same for CC(=O)NCCC(=O)N[C@@H](CCC(N)=O)C(=O)N[C@@H](CO)C(=O)N[C@@H](CCC(N)=O)C(=O)N[C@@H](CCC(N)=O)C(=O)N[C@H](C(=O)N[C@@H](Cc1ccccc1)C(=O)N[C@]1(C)CCCCCCC=CCCC[C@@](C)(C(=O)N[C@@H](CCC(N)=O)C(=O)N[C@@H](CC(N)=O)C(N)=O)NC(=O)[C@H](CC(C)C)NC(=O)[C@H](CC(C)C)NC(=O)[C@@H](CCCNC(=N)N)NC(=O)[C@H](Cc2c[nH]c3ccccc23)NC(=O)[C@H](CC(C)C)NC(=O)[C@H](CC(N)=O)NC1=O)[C@H](C)O as well.
Data returned: 38.2

Data request: Please do the same for Clc1ccc(COC(Cn2ccnc2)c2ccc(Cl)cc2Cl)c(Cl)c1 (stereo unspecified) as well.
Data returned: -0.257

Data request: Please do the same for CCc1cc(-c2n[nH]c(C)c2-c2ccc3c(c2)OCCO3)c(O)cc1O as well.
Data returned: 99.3

Data request: Please do the same for CCCCOCCOc1nc(-c2ccc(C(=O)O)c(F)c2)sc1C as well.
Data returned: 105

Data request: Please do the same for COC(=O)Nc1ccc(-c2nc(N3CCOCC3)c3cnn(C4CCN(C(=O)OC)CC4)c3n2)cc1 as well.
Data returned: 3.29

Data request: Please do the same for CN(C)CCCNC(=O)c1ccc(-c2cc(O)c3ncccc3c2)cc1 as well.
Data returned: 3.59

Data request: Please do the same for CCC=CC[C@H]1C(=O)CC[C@@H]1CC(=O)OC as well.
Data returned: 94.5

Data request: Please do the same for COc1ccc2nc3cc(Cl)ccc3c(Nc3cc(CN4CCCC4)c(O)c(CN4CCCC4)c3)c2n1 as well.
Data returned: -1.29

Data request: Please do the same for OCCn1cc(-c2ccc3c(c2)CCC3=NO)c(-c2ccncc2)n1 as well.
Data returned: 89.8

Data request: Please do the same for Cc1csc(-c2nnc(Nc3ccc(Oc4ncccc4-c4ccnc(N)n4)cc3)c3ccccc23)c1 as well.
Data returned: 93.3

Data request: Please do the same for Cc1cccc(Nc2nc(N[C@@H]3CCCC[C@H]3N)ncc2C(N)=O)c1 as well.
Data returned: 0.221

Data request: Please do the same for O=C(Nc1cccc(Cl)c1)Nc1ncc(CCNc2ncnc3ccsc23)s1 as well.
Data returned: 0.421

Data request: Please do the same for CCCCc1ccc(NS(=O)(=O)c2ccc(C)c(C(=O)N3CCN(c4cccc(C)c4C)CC3)c2)cc1 as well.
Data returned: 37.4

---

protocol: qHTS of pediatric cancer cell lines to identify multiple opportunities for drug repurposing: Primary screen for MG 63 (6-TG R) cells (AID 1347105); also: nearly all actives have a fitted effect of over 50% in size
measurementContext: MG 63 (6-TG R) viability, CellTiter-Glo, 48 h; series mostly up to 46 µM
Records with an inconclusive call do not appear. The source made the active and inactive calls. The call rests on the fitted dose curve; in most records, active means well fitted cell-killing curve with a large enough effect; inconclusive means small, poorly fitted or top-dose-only effect; inactive means no such curve, though single readings can be large or run the other way.
// allowed return values: label 1 = active, label 0 = inactive

Data request: I would be grateful if you could indicate the recorded call for CCOC(=O)[C@H](CCc1ccccc1)N[C@@H](C)C(=O)N1CCCC1C(=O)O (some centres not stated) .
Data returned: label 0

Data request: Please do the same for CCC(C)SSc1ncc[nH]1 (configuration not stated) as well.
Data returned: label 1

Data request: Please do the same for CC=C(C(=CC)c1ccc(O)cc1)c1ccc(O)cc1 as well.
Data returned: label 1

Data request: Please do the same for CO[C@H]1O[C@@H]2O[C@@]3(C)CC[C@@H]4[C@@H](C)CC[C@@H]([C@H]1C)[C@@]24OO3 as well.
Data returned: label 0

Data request: Please do the same for O=C(CO)N1CCC(c2[nH]nc(-c3ccc(Cl)cc3)c2-c2ccncn2)CC1 as well.
Data returned: label 0

Data request: Please do the same for OC(c1cc(C(F)(F)F)nc2c(C(F)(F)F)cccc12)C1CCCCN1 (configuration not stated) as well.
Data returned: label 0

Data request: Please do the same for COc1cc(CNC(=O)CCCCC=CC(C)C)ccc1O as well.
Data returned: label 0

Data request: Please do the same for C=CC[N+]1([C@H]2C[C@H]3[C@@H]4CC[C@H]5C[C@H](O)[C@@H](N6CCOCC6)C[C@]5(C)[C@@H]4CC[C@]3(C)[C@H]2OC(C)=O)CCCC1 as well.
Data returned: label 0

Data request: Please do the same for Cc1cc2nc3c(=O)[nH]c(=O)nc-3n(CC(O)C(O)C(O)CO)c2cc1C (configuration not stated) as well.
Data returned: label 0

Data request: Please do the same for Cc1cccc2c1CC[C@H](CN1CCC(c3c(Cl)cccc3Cl)CC1)C[C@@H]2O as well.
Data returned: label 0

Data request: Please do the same for O=C(O)C1=NC(C(=O)O)CC(C=CN2c3cc(O)c(OC4OC(CO)C(O)C(O)C4O)cc3CC2C(=O)O)=C1 (configuration not stated) as well.
Data returned: label 0

Data request: Please do the same for N#Cc1ccc(Oc2ccc3c(c2)COB3O)cc1 as well.
Data returned: label 0

Data request: Please do the same for Cc1cnc(Nc2cccc(CN3CCOCC3)c2)nc1Nc1cccc(S(=O)(=O)NC(C)(C)C)c1 as well.
Data returned: label 1

Data request: Please do the same for Fc1ccc(CNc2ncnc3ccc(F)cc23)cc1 as well.
Data returned: label 0

Data request: Please do the same for CN(C)CCOc1ccc(C(=C(CCCl)c2ccccc2)c2ccccc2)cc1 as well.
Data returned: label 0

Data request: Please do the same for NS(=O)(=O)c1ccc(Nc2nc(OCC3CCCCC3)c3[nH]cnc3n2)cc1 as well.
Data returned: label 0

Data request: Please do the same for C[C@H]1[C@H](O)O[C@@H]2O[C@@]3(C)CC[C@@H]4[C@H](C)CC[C@@H]1[C@@]24OO3 as well.
Data returned: label 1

Data request: Please do the same for CN[C@@H](C)[C@H]1[C@H](O)C[C@@]2(C)[C@@H]3CC[C@H]4C(C)(C)[C@@H](NC)CC[C@@]45C[C@@]35CC[C@]12C as well.
Data returned: label 0

Data request: Please do the same for CCC(=C(c1ccc(O)cc1)c1ccc(OCCNC)cc1)c1ccccc1 as well.
Data returned: label 1

Data request: Please do the same for CC(C)C[C@@H](N)[C@H](O)C(=O)N[C@H](C(=O)N[C@H](C(=O)N[C@@H](CC(=O)O)C(=O)O)C(C)C)C(C)C as well.
Data returned: label 0

Data request: Please do the same for COc1ccc(CCN(C)CCCOc2ccc(S(=O)(=O)c3[nH]c4ccccc4c3C(C)C)cc2)cc1OC as well.
Data returned: label 0

Data request: Please do the same for C[C@@H](N)c1ccc(C(=O)Nc2ccnc3[nH]ccc23)cc1 as well.
Data returned: label 0

Data request: Please do the same for COc1cc(C=CC(=O)O)ccc1O as well.
Data returned: label 0

Data request: Please do the same for COC(=O)Nc1ccc(-c2nc(N3CCOCC3)c3cnn(C4CCN(C(=O)OC)CC4)c3n2)cc1 as well.
Data returned: label 1

Data request: Please do the same for CN(C)N=Nc1nc[nH]c1C(N)=O as well.
Data returned: label 0

Data request: Please do the same for Cc1ccc(S(=O)(=O)OCC(=O)Nc2ccc(C(=O)O)c(O)c2)cc1 as well.
Data returned: label 0

Data request: Please do the same for Oc1ccc(C=Cc2cc(O)cc(O)c2)cc1 as well.
Data returned: label 0

Data request: Please do the same for O=C1CN2Cc3c(ccc(Cl)c3Cl)N=C2N1 as well.
Data returned: label 0

Data request: Please do the same for CCCCCCCCCCCCCCCC(=O)O[C@H]1[C@@H](O)[C@@H](O)[C@@H]([C@H](NC(=O)[C@@H]2C[C@@H](CCC)CN2C)[C@H](C)Cl)O[C@@H]1SC as well.
Data returned: label 0

Data request: Please do the same for O=C(O)C1=CO[C@@H](O[C@@H]2O[C@H](CO)[C@H](O)[C@H](O)[C@H]2O)[C@@H]2C(CO)=CC[C@H]12 as well.
Data returned: label 0

Data request: Please do the same for COc1ccc(-c2cc(=O)c3c(O)cc(O[C@@H]4O[C@H](CO[C@@H]5O[C@@H](C)[C@H](O)[C@@H](O)[C@@H]5O)[C@@H](O)[C@H](O)[C@@H]4O)cc3o2)cc1O as well.
Data returned: label 0

Data request: Please do the same for CN1CCN(c2ncc(-c3cc(Cl)cc(Cl)c3Cl)c(N)n2)CC1 as well.
Data returned: label 0

Data request: Please do the same for O=C(Nc1ncc(SCCN2CCCC2)s1)[C@]1(c2ccc(S(=O)(=O)C3CC3)cc2)C[C@@H]1C1CCCCC1 as well.
Data returned: label 1

Data request: Please do the same for C[C@@]1(C(=O)Nc2ccc(F)nc2)CCCN1c1nc(Nc2cc(C3CC3)[nH]n2)c2cccn2n1 as well.
Data returned: label 1

Data request: Please do the same for CC1C(=O)OC2C(O)C34C5CC(C(C)(C)C)C36C(OC(=O)C6O)OC4(C(=O)O5)C12O (configuration not stated) as well.
Data returned: label 0

Data request: Please do the same for CC[C@H]1OC(=O)[C@H](C)[C@@H](O[C@H]2C[C@@](C)(OC)[C@@H](O)[C@H](C)O2)[C@H](C)[C@@H](O[C@@H]2O[C@H](C)C[C@H](N(C)C)[C@H]2O)[C@](C)(O)C[C@H](C)C(=NOCOCCOC)[C@H](C)[C@@H](O)[C@]1(C)O as well.
Data returned: label 0

Data request: Please do the same for CN1CCC(COc2cnc(-c3cccc(Cn4nc(-c5cccc(C#N)c5)ccc4=O)c3)nc2)CC1 as well.
Data returned: label 1
